# target_system: human DPP1 enzyme (Homo sapiens (Human))
# Sequence (P53634 25-134): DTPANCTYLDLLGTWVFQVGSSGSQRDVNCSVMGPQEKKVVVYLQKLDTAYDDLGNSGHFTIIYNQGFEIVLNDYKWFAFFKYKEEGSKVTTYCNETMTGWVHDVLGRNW
# Sequence (P53634 231-394): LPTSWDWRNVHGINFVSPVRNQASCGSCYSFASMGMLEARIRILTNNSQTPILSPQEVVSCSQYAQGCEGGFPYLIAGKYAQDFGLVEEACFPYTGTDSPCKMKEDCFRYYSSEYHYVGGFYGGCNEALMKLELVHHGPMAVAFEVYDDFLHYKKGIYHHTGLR
# Sequence (P53634 395-463): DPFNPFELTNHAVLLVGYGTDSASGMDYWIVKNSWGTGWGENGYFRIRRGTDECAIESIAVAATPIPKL
# measurement_protocol: Human DPP1 enzyme single-point percent inhibition testing (HL-60 lysate, H-Gly-Arg-AMC substrate)
# Assay type: biochemical
# condition_context: read-out: human DPP1 enzyme % inhibition @ 10 nM, 10 nM compound, 400 μM H-Gly-Arg-AMC, 10 min pre-incubation at 37° C.
For each entry below, report its inhibition at 0.01 µM value.

Data request: Any idea what its inhibition at 0.01 µM is? The compound is CCN1C(=O)Cc2ccc(-c3ccc(C[C@@H](C#N)NC(=O)[C@@](C)(O)CN(C)C)c(F)c3)cc21 [Compound 402]
Data returned: ≥ 66.7%

Data request: Any idea what its inhibition at 0.01 µM is? The compound is CN(C)C[C@H](O)C(=O)N[C@H](C#N)Cc1ccc(-c2ccc3oc(=O)n(CCN4CCOCC4)c3c2)cc1F [Compound 364]
Data returned: 40 to 66.7%

Data request: Any idea what its inhibition at 0.01 µM is? The compound is CN(C)C[C@](C)(O)C(=O)N[C@H](C#N)Cc1ccc(-c2ccc3c(c2)C2(CCN(C4COC4)CC2)OC3)cc1 [Compound 392]
Data returned: ≥ 66.7%

Data request: Any idea what its inhibition at 0.01 µM is? The compound is CN(C)C[C@H](O)C(=O)N[C@H](C#N)Cc1ccc(-c2ccc3oc(=O)n(CCN4CCOCC4)c3c2)cc1 [Compound 351]
Data returned: ≤ 40%

###

# target_system: DPP1 in HL-60 cells (Homo sapiens (Human))
# Sequence (P53634 25-134): as the sequence (P53634 25-134) above
# Sequence (P53634 231-394): as the sequence (P53634 231-394) above
# Sequence (P53634 395-463): as the sequence (P53634 395-463) above
# measurement_protocol: DPP1 cell single-point percent inhibition testing (HL-60 cells, H-Gly-Phe-AFC substrate)
# Type: cell-based
# condition_context: read-out: DPP1 cell % inhibition @ 5 nM, 5 nM compound, 100 μM H-Gly-Phe-AFC, 60 min pre-incubation at 37° C.
readout_kind: inhibition at 0.005 µM

Data request: Item CN(C)C[C@](C)(O)C(=O)N[C@H](C#N)Cc1ccc(-c2ccc3c(c2)C2(CCCN(C)C2)C(=O)N3C)cc1F (some centres unmarked) with DPP1 in HL-60 cells (Homo sapiens (Human)) - inhibition at 0.005 µM?
Data returned: ≥ 93.9%

Data request: Item CN(C)C[C@H](O)C(=O)N[C@H](C#N)Cc1ccc(-c2ccc(CN3CCN(C)CC3)cc2)cc1F with DPP1 in HL-60 cells (Homo sapiens (Human)) - inhibition at 0.005 µM?
Data returned: ≤ 76.5%

Data request: Item CN(C)C[C@](C)(O)C(=O)NC(C#N)Cc1cc2c(cc1F)-c1cc(C3COC3)c(F)cc1CO2 (some centres unmarked) with DPP1 in HL-60 cells (Homo sapiens (Human)) - inhibition at 0.005 µM?
Data returned: ≤ 76.5%

Data request: Item CN(C)C[C@H](O)C(=O)N[C@H](C#N)Cc1cc2c(cc1F)-c1ccc(F)cc1CO2 with DPP1 in HL-60 cells (Homo sapiens (Human)) - inhibition at 0.005 µM?
Data returned: ≤ 76.5%

Data request: Item CO[C@@H](CN(C)C)C(=O)N[C@H](C#N)Cc1ccc(-c2ccc3oc(=O)n(C)c3c2)cc1 with DPP1 in HL-60 cells (Homo sapiens (Human)) - inhibition at 0.005 µM?
Data returned: 76.5 to 93.9%

Data request: Item CO[C@@H](CN(C)C)C(=O)N[C@H](C#N)Cc1ccc(-c2ccc3oc(=O)n(C)c3c2)cc1F with DPP1 in HL-60 cells (Homo sapiens (Human)) - inhibition at 0.005 µM?
Data returned: 76.5 to 93.9%

Data request: Item CN(C)C[C@H](O)C(=O)N[C@H](C#N)Cc1ccc(-c2ccc3c(n2)CCCN3)cc1 with DPP1 in HL-60 cells (Homo sapiens (Human)) - inhibition at 0.005 µM?
Data returned: ≤ 76.5%

Data request: Item CO[C@@H](CN(C)C)C(=O)N[C@H](C#N)Cc1ccc(-c2ccc3c(c2)C2(CCN(C4COC4)CC2)OC3)cc1 with DPP1 in HL-60 cells (Homo sapiens (Human)) - inhibition at 0.005 µM?
Data returned: ≤ 76.5%

Data request: Item CN(C)C[C@](C)(O)C(=O)NC(C#N)Cc1cc2c(cc1F)-c1cc(C#N)ccc1CO2 (some centres unmarked) with DPP1 in HL-60 cells (Homo sapiens (Human)) - inhibition at 0.005 µM?
Data returned: ≤ 76.5%

Data request: Item CN(C)C[C@H](O)C(=O)N[C@H](C#N)Cc1ccc(-c2ccc3oc(=O)n(CCN4CCOCC4)c3c2)cc1 with DPP1 in HL-60 cells (Homo sapiens (Human)) - inhibition at 0.005 µM?
Data returned: ≤ 76.5%

Data request: Item CO[C@@H](CN(C)C)C(=O)N[C@H](C#N)Cc1ccc(-c2ccc3c(c2)C2(CCCN(C)C2)C(=O)N3C)cc1F (some centres unmarked) with DPP1 in HL-60 cells (Homo sapiens (Human)) - inhibition at 0.005 µM?
Data returned: ≥ 93.9%

Data request: Item CO[C@@H](CN(C)C)C(=O)N[C@H](C#N)Cc1ccc(-c2ccc(S(=O)(=O)N3CCC3)cc2)cc1 with DPP1 in HL-60 cells (Homo sapiens (Human)) - inhibition at 0.005 µM?
Data returned: ≤ 76.5%

Data request: Item CN(C)C[C@](C)(O)C(=O)N[C@H](C#N)Cc1ccc(-c2ccc3c(c2)C2(CCN(C4COC4)CC2)OC3)cc1F with DPP1 in HL-60 cells (Homo sapiens (Human)) - inhibition at 0.005 µM?
Data returned: 76.5 to 93.9%

Data request: Item CO[C@@H](CN(C)C)C(=O)N[C@H](C#N)Cc1ccc(-c2ccc3cnn(C4CCN(C)CC4)c3c2)cc1 with DPP1 in HL-60 cells (Homo sapiens (Human)) - inhibition at 0.005 µM?
Data returned: ≤ 76.5%

Data request: Item CN(C)C[C@H](O)C(=O)N[C@H](C#N)Cc1cc2c(cc1F)-c1ccc(C#N)cc1CO2 with DPP1 in HL-60 cells (Homo sapiens (Human)) - inhibition at 0.005 µM?
Data returned: ≤ 76.5%

Data request: Item CO[C@@H](CN(C)C)C(=O)NC(C#N)Cc1cc2c(cc1F)-c1cc3c(cc1CO2)oc(=O)n3C (some centres unmarked) with DPP1 in HL-60 cells (Homo sapiens (Human)) - inhibition at 0.005 µM?
Data returned: ≤ 76.5%

Data request: Item CN(C)C[C@H](O)C(=O)N[C@H](C#N)Cc1ccc(-c2ccc3cnn(C4CCN(C)CC4)c3c2)cc1F with DPP1 in HL-60 cells (Homo sapiens (Human)) - inhibition at 0.005 µM?
Data returned: ≤ 76.5%

Data request: Item CN(C)C[C@](C)(O)C(=O)N[C@H](C#N)Cc1ccc(-c2ccc(CN3CCN(C)CC3)cc2)cc1 with DPP1 in HL-60 cells (Homo sapiens (Human)) - inhibition at 0.005 µM?
Data returned: 76.5 to 93.9%

Data request: Item CN(C)C[C@](C)(O)C(=O)N[C@H](C#N)Cc1ccc(-c2cnc3c(n2)CCCC3)cc1F with DPP1 in HL-60 cells (Homo sapiens (Human)) - inhibition at 0.005 µM?
Data returned: ≤ 76.5%

Data request: Item CO[C@@H](CN(C)C)C(=O)N[C@H](C#N)Cc1ccc(-c2ccc3c(c2)C2(CN(C)C2)OC3=O)cc1F with DPP1 in HL-60 cells (Homo sapiens (Human)) - inhibition at 0.005 µM?
Data returned: ≤ 76.5%

Data request: Item CCN1C(=O)Cc2ccc(-c3ccc(C[C@@H](C#N)NC(=O)[C@@H](O)CN(C)C)cc3)cc21 with DPP1 in HL-60 cells (Homo sapiens (Human)) - inhibition at 0.005 µM?
Data returned: ≤ 76.5%

Data request: Item CO[C@@H](CN(C)C)C(=O)N[C@H](C#N)Cc1ccc(-c2ccc3c(c2)C2(CN(C)C2)OC3=O)cc1 with DPP1 in HL-60 cells (Homo sapiens (Human)) - inhibition at 0.005 µM?
Data returned: ≤ 76.5%

Data request: Item CN(C)C[C@](C)(O)C(=O)N[C@H](C#N)Cc1ccc(-c2ccc3oc(=O)n(C)c3c2)cc1F with DPP1 in HL-60 cells (Homo sapiens (Human)) - inhibition at 0.005 µM?
Data returned: ≥ 93.9%

Data request: Item CN(C)C[C@](C)(O)C(=O)N[C@H](C#N)Cc1ccc(-c2ccc3c(c2)C2(CN(C)C2)OC3=O)cc1 with DPP1 in HL-60 cells (Homo sapiens (Human)) - inhibition at 0.005 µM?
Data returned: ≥ 93.9%

Data request: Item CCN1C(=O)Cc2ccc(-c3ccc(C[C@@H](C#N)NC(=O)[C@@](C)(O)CN(C)C)cc3)cc21 with DPP1 in HL-60 cells (Homo sapiens (Human)) - inhibition at 0.005 µM?
Data returned: 76.5 to 93.9%

Data request: Item CO[C@@H](CN(C)C)C(=O)N[C@H](C#N)Cc1cc2c(cc1F)-c1ccc(F)cc1CO2 with DPP1 in HL-60 cells (Homo sapiens (Human)) - inhibition at 0.005 µM?
Data returned: ≤ 76.5%

Data request: Item CN(C)C[C@](C)(O)C(=O)N[C@H](C#N)Cc1ccc(-c2ccc3cnn(C)c3c2)cc1F with DPP1 in HL-60 cells (Homo sapiens (Human)) - inhibition at 0.005 µM?
Data returned: 76.5 to 93.9%

Data request: Item CCN1C(=O)Cc2ccc(-c3ccc(C[C@@H](C#N)NC(=O)[C@H](CN(C)C)OC)c(F)c3)cc21 with DPP1 in HL-60 cells (Homo sapiens (Human)) - inhibition at 0.005 µM?
Data returned: 76.5 to 93.9%

Data request: Item CO[C@@H](CN(C)C)C(=O)N[C@H](C#N)Cc1ccc(-c2cc3c(C)nc(C)cn3c2)cc1 with DPP1 in HL-60 cells (Homo sapiens (Human)) - inhibition at 0.005 µM?
Data returned: ≤ 76.5%
